- System under test: HsEg5 (Homo sapiens, UniProt P52732)
- Sequence (P52732 1-370): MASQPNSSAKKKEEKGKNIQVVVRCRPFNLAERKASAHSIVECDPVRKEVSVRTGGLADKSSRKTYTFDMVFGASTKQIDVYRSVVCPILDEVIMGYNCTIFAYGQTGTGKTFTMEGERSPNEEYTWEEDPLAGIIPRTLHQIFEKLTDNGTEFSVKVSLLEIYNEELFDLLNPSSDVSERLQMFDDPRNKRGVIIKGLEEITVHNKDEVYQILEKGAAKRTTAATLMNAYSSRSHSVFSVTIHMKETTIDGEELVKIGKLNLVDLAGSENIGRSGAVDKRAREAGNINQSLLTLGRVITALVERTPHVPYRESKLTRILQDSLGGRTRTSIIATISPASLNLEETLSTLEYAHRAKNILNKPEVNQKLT
Endpoint name: Ki (nM)
Numbers only here, please. The scale is nM.

The molecule listed as [Mo] shows Ki equal to 550
